Below: a set of entries, each annotated with reported Ki(app).
# experimental.system: specific ANP receptor sites on BASM or BAE cells (Bos taurus, UniProt P10730)
# Construct: specific receptor sites on BASM or BAE cells; endogenous in cells; host or cells: cultured BASM and BAE cells
# Sequence (P10730 42-537): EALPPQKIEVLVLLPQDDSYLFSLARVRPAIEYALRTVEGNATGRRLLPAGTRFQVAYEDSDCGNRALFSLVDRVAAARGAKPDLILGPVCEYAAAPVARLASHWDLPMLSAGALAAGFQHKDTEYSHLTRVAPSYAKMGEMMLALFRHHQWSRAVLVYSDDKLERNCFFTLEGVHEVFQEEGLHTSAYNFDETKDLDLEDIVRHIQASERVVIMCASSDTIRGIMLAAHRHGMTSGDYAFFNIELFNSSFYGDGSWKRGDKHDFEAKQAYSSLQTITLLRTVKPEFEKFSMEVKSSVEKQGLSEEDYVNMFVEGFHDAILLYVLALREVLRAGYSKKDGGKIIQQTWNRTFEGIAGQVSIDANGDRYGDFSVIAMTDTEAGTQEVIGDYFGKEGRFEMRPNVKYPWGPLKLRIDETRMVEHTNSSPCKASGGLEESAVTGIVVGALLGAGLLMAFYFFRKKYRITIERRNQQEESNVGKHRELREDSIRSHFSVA
# assay.remarks: Competitive displacement receptor binding of (125I)-rANP(126-150) on cultured cells
# Design: species or system bovine
# recorded.conditions: concentration of unlabeled peptide displacing 50% of maximal binding of 0.5 nM (125I)-rANP(126-150); BASM or BAE cells
*1 amine or outer side, *2 acyl side, *3 side chain or, on linkers, in order; H or OH if unused. Where a SMILES comes first, the peptide text is derived from it. [ ]: non-standard residue; d: D form. The star is where a group is joined. X8 = N=C(N)NCCC[C@@H](C(=O)[*:2])N(CC1CCN([*:3])CC1)[*:1]; Acetyl(2-naphthyloxy) = O=C(COc1ccc2ccccc2c1)*; Acetyl(2-naphthyl) = O=C(Cc1ccc2ccccc2c1)*; Fmoc = O=C(OCC1c2ccccc2-c2ccccc21)*; NMeI = CC[C@H](C)[C@H](NC)C(=O)O; X1 = O=C(Cc1ccc(N[*:1])cc1)[*:2]; Tle = CC(C)(C)[C@H](N)C(=O)O
Number only, in nM; omit the unit.

State the recorded Ki(app) for this entry: CC[C@H](C)[C@H](NC(=O)[C@H](CCCNC(=N)N)NC(=O)CNC(=O)CNC(=O)Cc1ccc2ccccc2c1)C(=O)N[C@@H](CC(=O)O)C(=O)N[C@@H](CCCNC(=N)N)C(=O)N[C@H](C(N)=O)C(C)C [AP333, (2-NA)--G--G--R--I--D--R--V--NH2] ({Acetyl(2-naphthyl)}-GGRIDRV-NH2)
106.4

Name the recorded Ki(app) for CCNC(=O)CNC(=O)[C@@H](NC(=O)[C@H](CCCNC(=N)N)NC(=O)[C@H](CC(=O)O)NC(=O)[C@@H](NC(=O)[C@H](CCCNC(=N)N)NC(=O)CNC(=O)CNC(=O)Cc1ccc2ccccc2c1)[C@@H](C)CC)[C@@H](C)CC [AP524] ({Acetyl(2-naphthyl)}-GGRIDRIG-NHEt) .
2.76

So what does the record say about Ki(app) for CC[C@H](C)[C@H](NC(=O)[C@H](CCCNC(=N)N)NC(=O)[C@H](CC(=O)O)NC(=O)[C@@H](NC(=O)[C@H](CCCCNC(C)=O)NC(=O)Cc1ccc(NC(=O)COc2ccc3ccccc3c2)cc1)[C@@H](C)CC)C(N)=O [AP801] ({Acetyl(2-naphthyloxy)}-[X1]K(Ac)IDRI-NH2) ?
3.95

// Ki(app) lookup, key: CC[C@H](C)[C@H](NC(=O)[C@H](CCCNC(=N)N)NC(=O)[C@H](CC(=O)O)NC(=O)[C@@H](NC(=O)[C@H](CCCNC(=N)N)NCC1CCN(C(=O)Cc2ccc3ccccc3c2)CC1)[C@@H](C)CC)C(N)=O [AP704] (H-[X8](Acetyl(2-naphthyl))IDRI-NH2)
17.0

Could you share which Ki(app) value was measured for CC[C@H](C)[C@H](NC(=O)[C@H](CCCNC(=N)N)NC(=O)[C@H](CC(=O)O)NC(=O)[C@@H](NC(=O)[C@H](CCCNC(=N)N)NC(=O)CNC(=O)CNC(=O)Cc1ccc2ccccc2c1)C(C)(C)C)C(N)=O [AP591, (2-NA)--G--G--R--tBuG--D--R--I--NH2] ({Acetyl(2-naphthyl)}-GGR[Tle]DRI-NH2) ?
14.0

// lookup Ki(app) for CC[C@H](C)[C@H](NC(=O)[C@H](CCCNC(=N)N)NC(=O)[C@H](CC(=O)O)NC(=O)[C@@H](NC(=O)[C@H](CCCNC(=N)N)NC(=O)CNC(=O)CNC(=O)OCC1c2ccccc2-c2ccccc21)[C@@H](C)CC)C(=O)NCC(=O)N[C@@H](C)C(N)=O [AP312, (FMOC)--G--G--R--I--D--R--I--G--A--NH2] (Fmoc-GGRIDRIGA-NH2)
6.27

Find the recorded Ki(app) belonging to CCNC(=O)[C@H]([C@@H](C)CC)N(C)C(=O)[C@H](CCCNC(=N)N)NC(=O)[C@H](CC(=O)O)NC(=O)[C@@H](NC(=O)[C@H](CCCNC(=N)N)NC(=O)CNC(=O)CNC(=O)Cc1ccc2ccccc2c1)[C@@H](C)CC [AP596] ({Acetyl(2-naphthyl)}-GGRIDR[NMeI]-NHEt) and report it.
87.3

Cited source: patent US5047397A
